# MDA-MB-231 cells: Average (percentage cell inhibition), Dmastoparan MDA-MB231 12.5uM values follow
Field: numeric (%). Do not append units.

GET /values?readout=Average (percentage cell inhibition), Dmastoparan MDA-MB231 12.5uM&item= CC[C@H](C)[C@H](N)C(=O)N[C@@H](CC(N)=O)C(=O)N[C@@H](CC(C)C)C(=O)N[C@@H](CCCCN)C(=O)N[C@@H](C)C(=O)N[C@@H](Cc1ccc(O)cc1)C(=O)N[C@@H](C)C(=O)N[C@@H](C)C(=O)N[C@@H](CC(C)C)C(=O)N[C@@H](C)C(=O)N[C@@H](CCCCN)C(=O)N[C@@H](CCCCN)C(=O)N[C@H](C(=O)N[C@@H](CC(C)C)C(N)=O)[C@@H](C)CC
22.8055

Now the same for CC[C@H](C)[C@H](N)C(=O)N[C@@H](CC(N)=O)C(=O)N[C@@H](CC(C)C)C(=O)N[C@@H](CCCCN)C(=O)N[C@@H](C)C(=O)N[C@@H](CC(C)C)C(=O)N[C@@H](C)C(=O)N[C@@H](C)C(=O)N[C@@H](CC(C)C)C(=O)N[C@@H](C)C(=O)N[C@@H](CCCCN)C(=O)N[C@@H](CCCCN)C(=O)N[C@H](C(=O)N[C@@H](CCCCN)C(N)=O)[C@@H](C)CC
21.2164

Now the same for CC[C@H](C)[C@H](N)C(=O)N[C@@H](CC(N)=O)C(=O)N[C@@H](CC(C)C)C(=O)N[C@@H](CCCCN)C(=O)N[C@@H](C)C(=O)N[C@@H](CC(C)C)C(=O)N[C@@H](C)C(=O)N[C@H](C(=O)N[C@@H](CC(C)C)C(=O)N[C@@H](C)C(=O)N[C@@H](CCCCN)C(=O)N[C@@H](CCCCN)C(=O)N[C@H](C(=O)N[C@@H](CC(C)C)C(N)=O)[C@@H](C)CC)[C@@H](C)CC
40.0855

====

Test system: MDA-MB-231 cells
Task for the reader: assign each of the following compounds its reported Average (percentage cell inhibition), Dmastoparan MDA-MB231 12.5uM.
Write your answer as a measured quantity: the number, then the unit.

GET /values?readout=Average (percentage cell inhibition), Dmastoparan MDA-MB231 12.5uM&item= CC[C@H](C)[C@H](N)C(=O)N[C@@H](CC(N)=O)C(=O)N[C@@H](CC(C)C)C(=O)N[C@@H](CCCCN)C(=O)N[C@@H](C)C(=O)N[C@@H](CC(C)C)C(=O)N[C@@H](C)C(=O)N[C@@H](C)C(=O)N[C@@H](CC(C)C)C(=O)N[C@@H](C)C(=O)N[C@H](C(=O)N[C@@H](CCCCN)C(=O)N[C@H](C(=O)N[C@@H](CC(C)C)C(N)=O)[C@@H](C)CC)[C@@H](C)O [T11]
32.1267%

Now the same for CC[C@H](C)[C@H](N)C(=O)N[C@@H](CC(N)=O)C(=O)N[C@@H](CC(C)C)C(=O)N[C@@H](CCCCN)C(=O)N[C@@H](C)C(=O)N[C@@H](CC(C)C)C(=O)N[C@@H](C)C(=O)N[C@@H](C)C(=O)N[C@@H](CC(C)C)C(=O)N[C@@H](Cc1c[nH]c2ccccc12)C(=O)N[C@@H](CCCCN)C(=O)N[C@@H](CCCCN)C(=O)N[C@H](C(=O)N[C@@H](CC(C)C)C(N)=O)[C@@H](C)CC [W10]
49.5675%

Now the same for CC[C@H](C)[C@H](N)C(=O)N[C@@H](CC(N)=O)C(=O)N[C@@H](CC(C)C)C(=O)N[C@@H](Cc1ccc(O)cc1)C(=O)N[C@@H](C)C(=O)N[C@@H](CC(C)C)C(=O)N[C@@H](C)C(=O)N[C@@H](C)C(=O)N[C@@H](CC(C)C)C(=O)N[C@@H](C)C(=O)N[C@@H](CCCCN)C(=O)N[C@@H](CCCCN)C(=O)N[C@H](C(=O)N[C@@H](CC(C)C)C(N)=O)[C@@H](C)CC [Y4]
34.4143%
